biological target: human TLR7 (wild type sequence) (Homo sapiens); construct: expressed in transfected cells; host or cells: HEK293; assay: TLR7 cellular NFκB-luc reporter assay, wild type TLR7; type: cell-based; parameters: unit not given here; conditions: lowest effective concentration, wild type TLR7 (compounds 74 onward)
Sequence (Q9NYK1 27-1049): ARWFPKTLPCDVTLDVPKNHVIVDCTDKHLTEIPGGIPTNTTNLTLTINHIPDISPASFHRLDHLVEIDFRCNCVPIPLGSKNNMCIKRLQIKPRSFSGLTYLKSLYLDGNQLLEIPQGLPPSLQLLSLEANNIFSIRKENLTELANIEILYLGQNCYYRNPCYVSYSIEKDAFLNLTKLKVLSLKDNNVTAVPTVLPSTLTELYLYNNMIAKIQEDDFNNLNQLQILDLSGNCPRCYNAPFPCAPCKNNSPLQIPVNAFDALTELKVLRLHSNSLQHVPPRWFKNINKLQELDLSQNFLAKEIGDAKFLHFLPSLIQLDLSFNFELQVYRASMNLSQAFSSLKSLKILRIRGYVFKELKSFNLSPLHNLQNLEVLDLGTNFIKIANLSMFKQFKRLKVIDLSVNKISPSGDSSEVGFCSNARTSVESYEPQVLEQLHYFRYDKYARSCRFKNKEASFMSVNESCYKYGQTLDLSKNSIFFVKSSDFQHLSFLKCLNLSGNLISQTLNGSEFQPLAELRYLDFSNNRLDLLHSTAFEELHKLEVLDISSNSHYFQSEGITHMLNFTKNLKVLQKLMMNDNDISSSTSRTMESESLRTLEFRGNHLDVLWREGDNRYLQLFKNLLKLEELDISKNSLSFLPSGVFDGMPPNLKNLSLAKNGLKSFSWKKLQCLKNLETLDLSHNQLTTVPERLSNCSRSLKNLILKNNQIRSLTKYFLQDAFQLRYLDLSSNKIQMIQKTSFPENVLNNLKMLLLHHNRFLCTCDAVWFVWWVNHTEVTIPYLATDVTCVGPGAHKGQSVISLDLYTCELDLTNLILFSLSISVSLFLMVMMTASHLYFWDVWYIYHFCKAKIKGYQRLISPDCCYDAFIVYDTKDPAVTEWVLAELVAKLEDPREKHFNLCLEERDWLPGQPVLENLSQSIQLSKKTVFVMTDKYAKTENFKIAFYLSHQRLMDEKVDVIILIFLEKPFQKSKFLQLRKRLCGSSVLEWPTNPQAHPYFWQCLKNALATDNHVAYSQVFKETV
I'd appreciate it if you marked entries satisfied when TLR 7 wt LEC is lower than 0.5 and not satisfied when it is not.

In [3]: df
Out[3]:
                                item_smiles          group
0      CCCCNc1nc(N)ncc1OCc1cc(C(=O)OCC)ccn1      satisfied
1  CCCCNc1nc(N)ncc1OCc1cncn1[C@H](C)c1ccccc1      satisfied
2  CCC[C@@H](CO)Nc1nc(N)ncc1OCc1ccc2ccccc2n1      satisfied
3       CCCCNc1nc(N)ncc1OCc1cc(-c2ccco2)on1  not satisfied
4      CCCCNc1nc(N)ncc1OCCOc1ccc(OC)c(OC)c1  not satisfied
5      CCCCNc1nc(N)ncc1OCc1cccc(CC(=O)OC)c1  not satisfied
6   CCCCNc1nc(N)ncc1OCCOc1ccc(C(=O)OC)cc1OC  not satisfied
7                CCCCNc1nc(N)ncc1OCc1cccnn1  not satisfied
8        CCCCNc1nc(N)ncc1OCCOc1cccc(OC)c1OC  not satisfied
